Experiment: absolute recovery over mixed-bed multilayer solid-phase extraction; higher = better recovery
Conditions: wastewater influent; enrichment method: SPE
quantity name: absolute recovery (%)
Write the value in % as a bare number.

- CC(C)c1ccc(N)cc1: 84.8
- CC(CN1c2ccccc2CCc2ccccc21)C[NH+](C)C (stereo not given): 54.3
- CC1COC(=O)c2cc3c(cc21)C(C)(C)C(C)C3(C)C (stereo not given): 108
- CCOC(=O)C1(c2ccccc2)CCC=CC1[NH+](C)C (stereo not given): 83.5
- C[NH2+]CCC(Oc1ccc(C(F)(F)F)cc1)c1ccccc1 (stereo not given): 82.8
- Cc1ccc2[nH]nnc2c1: 97.5

Query Oc1ccc(C(F)(F)F)cc1 yields absolute recovery of 95.1

Query Cc1cn(C2CC(N=[N+]=[N-])C(CO)O2)c(=O)[nH]c1=O (stereo not given) yields absolute recovery of 97.1

Query CSc1nc(N)nc(NC(C)(C)C)n1 yields absolute recovery of 79
